// data source = patent US20150031674A1

Target: human recombinant PAK1-KD protein (Homo sapiens)
Sequence (Q13153 270-521 limits assumed): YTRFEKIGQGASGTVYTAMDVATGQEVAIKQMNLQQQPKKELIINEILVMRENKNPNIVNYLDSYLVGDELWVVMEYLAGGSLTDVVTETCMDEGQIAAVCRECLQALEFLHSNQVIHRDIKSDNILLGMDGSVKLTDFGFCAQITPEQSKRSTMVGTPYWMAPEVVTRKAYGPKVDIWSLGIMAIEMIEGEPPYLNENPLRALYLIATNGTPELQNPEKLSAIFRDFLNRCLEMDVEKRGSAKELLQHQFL
Test: PAK1-KD (Kinase Domain) IC50 Zlyte Assay (FRET peptide substrate phosphorylation)
Details: Z'-LYTE, Biological Example 1
quantityName: Ki (µM)
The figure you give is taken to be in µM; do not add the unit.

Below, each entry is followed by its recorded Ki result.
CCNc1ncc2cc(-c3ccc(-c4cncc(C)n4)cc3Cl)c(=O)n(CCOCCN)c2n1 [Example I-12] :: 0.0043
Cc1cccc(-c2ccc(-c3cc4cnc(NC5COC5)nc4n(CCCO)c3=O)c(C)c2)n1 [Example I-168] :: 0.0157
CNc1ncc2cc(-c3ccc(-c4csc(C)n4)cc3Cl)c(=O)n(CCCN)c2n1 [Example I-140] :: 0.00806

Here is another compound to look at.
Look up and report measured Ki (human recombinant PAK1-KD protein (Homo sapiens)) for the following compound: CCNc1ncc2cc(-c3ccc(-c4cncc(C)n4)cc3Cl)c(=O)n(C3CCN(C(=O)CN)C3)c2n1 (stereo not shown) [Example I-28]
0.0257
